run-parameters: in DMF, 293.2 K
endpoint-label: solubility (mole fraction)
// print number alone

# compound C=C(C)[C@@H]1CC[C@]2(CO)CC[C@]3(C)[C@H](CC[C@@H]4[C@@]5(C)CC[C@H](O)C(C)(C)[C@@H]5CC[C@]43C)[C@@H]12 ; its solubility (mole fraction) = 0.00208

###

run-parameters: in NMP, 303.2 K
endpoint-label: solubility (mole fraction)
// print number alone

# molecule C=C(C)[C@@H]1CC[C@]2(CO)CC[C@]3(C)[C@H](CC[C@@H]4[C@@]5(C)CC[C@H](O)C(C)(C)[C@@H]5CC[C@]43C)[C@@H]12 ; its solubility (mole fraction) = 0.0059

###

run-parameters: in water, 308.2 K
endpoint-label: solubility (mole fraction)
// print number alone

# compound C=C(C)[C@@H]1CC[C@]2(CO)CC[C@]3(C)[C@H](CC[C@@H]4[C@@]5(C)CC[C@H](O)C(C)(C)[C@@H]5CC[C@]43C)[C@@H]12 ; its solubility (mole fraction) = 9e-06

###

run-parameters: in n-nonanol, 303.2 K
endpoint-label: solubility (mole fraction)
// print number alone

# compound C=C(C)[C@@H]1CC[C@]2(CO)CC[C@]3(C)[C@H](CC[C@@H]4[C@@]5(C)CC[C@H](O)C(C)(C)[C@@H]5CC[C@]43C)[C@@H]12 ; its solubility (mole fraction) = 0.00254

###

run-parameters: in NMP, 318.2 K
endpoint-label: solubility (mole fraction)
// print number alone

# molecule C=C(C)[C@@H]1CC[C@]2(CO)CC[C@]3(C)[C@H](CC[C@@H]4[C@@]5(C)CC[C@H](O)C(C)(C)[C@@H]5CC[C@]43C)[C@@H]12 ; its solubility (mole fraction) = 0.00653

###

run-parameters: in sec-butanol, 328.2 K
endpoint-label: solubility (mole fraction)
// print number alone

# compound C=C(C)[C@@H]1CC[C@]2(CO)CC[C@]3(C)[C@H](CC[C@@H]4[C@@]5(C)CC[C@H](O)C(C)(C)[C@@H]5CC[C@]43C)[C@@H]12 ; its solubility (mole fraction) = 0.00148

###

run-parameters: in n-nonanol, 318.2 K
endpoint-label: solubility (mole fraction)
// print number alone

# compound C=C(C)[C@@H]1CC[C@]2(CO)CC[C@]3(C)[C@H](CC[C@@H]4[C@@]5(C)CC[C@H](O)C(C)(C)[C@@H]5CC[C@]43C)[C@@H]12 ; its solubility (mole fraction) = 0.00371

###

run-parameters: in sec-butanol, 303.2 K
endpoint-label: solubility (mole fraction)
// print number alone

# molecule C=C(C)[C@@H]1CC[C@]2(CO)CC[C@]3(C)[C@H](CC[C@@H]4[C@@]5(C)CC[C@H](O)C(C)(C)[C@@H]5CC[C@]43C)[C@@H]12 ; its solubility (mole fraction) = 0.000813

###

run-parameters: in n-nonanol, 323.2 K
endpoint-label: solubility (mole fraction)
// print number alone

# molecule C=C(C)[C@@H]1CC[C@]2(CO)CC[C@]3(C)[C@H](CC[C@@H]4[C@@]5(C)CC[C@H](O)C(C)(C)[C@@H]5CC[C@]43C)[C@@H]12 ; its solubility (mole fraction) = 0.00431

###

run-parameters: in n-hexadecane, 318.2 K
endpoint-label: solubility (mole fraction)

# compound C=C(C)[C@@H]1CC[C@]2(CO)CC[C@]3(C)[C@H](CC[C@@H]4[C@@]5(C)CC[C@H](O)C(C)(C)[C@@H]5CC[C@]43C)[C@@H]12 ; its solubility (mole fraction) = 8.3e-05

###

run-parameters: in n-dodecane, 308.2 K
endpoint-label: solubility (mole fraction)
// print number alone

# molecule C=C(C)[C@@H]1CC[C@]2(CO)CC[C@]3(C)[C@H](CC[C@@H]4[C@@]5(C)CC[C@H](O)C(C)(C)[C@@H]5CC[C@]43C)[C@@H]12 ; its solubility (mole fraction) = 2.3e-05
